B1: ZNF232 (parent)
chain: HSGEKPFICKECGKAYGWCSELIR

# Variants of: B1
# ASSAY REMARKS: protein stability index of a GFP-peptide fusion (GPS, HEK-293T) (PSI 1-6); higher = more stable;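 also: lentivirally expressed fusions sorted by FACS into six bins by GFP to DsRed ratio, PSI derived from sequencing read proportions per bin multiplied by bin number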
# EXPERIMENTAL SETUP: c terminus: a fixed tail appended
Short version: protein stability index at least 2 is T, less is F.

1) E21Q    T
2) C12T    T
3) C12P    F
4) K5H    F

Values compiled from the supplement of paper PMC10567573.
